experimental_system: Luciferin 4-monooxygenase (Photinus pyralis) (UniProt P08659)
Sequence (P08659 whole entry, looked up): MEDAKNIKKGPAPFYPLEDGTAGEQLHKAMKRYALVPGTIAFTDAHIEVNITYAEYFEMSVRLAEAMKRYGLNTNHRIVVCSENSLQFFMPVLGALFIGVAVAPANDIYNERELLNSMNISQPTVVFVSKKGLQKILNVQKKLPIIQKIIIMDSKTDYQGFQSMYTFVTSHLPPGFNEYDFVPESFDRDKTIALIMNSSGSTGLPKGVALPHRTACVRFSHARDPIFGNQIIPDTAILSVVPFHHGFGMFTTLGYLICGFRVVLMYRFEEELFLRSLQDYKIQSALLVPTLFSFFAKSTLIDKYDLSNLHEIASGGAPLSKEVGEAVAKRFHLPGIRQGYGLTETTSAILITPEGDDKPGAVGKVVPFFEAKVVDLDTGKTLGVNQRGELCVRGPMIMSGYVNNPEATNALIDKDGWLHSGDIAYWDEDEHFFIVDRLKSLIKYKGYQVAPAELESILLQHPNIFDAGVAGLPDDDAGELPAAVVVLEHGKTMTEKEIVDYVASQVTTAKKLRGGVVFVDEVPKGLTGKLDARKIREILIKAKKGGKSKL
test: firefly luciferase enzyme inhibitors, primary screen, biochemical, luminescence, purified enzyme, 2006 set (AID 1141);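 note: cell-free assay with purified firefly luciferase at 100 ng per well in PBS; test concentration not given here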
condition_summary: SteadyGlo luminescence, 30 min, higher = more signal, called active from +8 up or from −8 down
Answer each item with its documented z-score.
One number for each entry.

The examples below pair each entry with its known result.
> print(dat)
                           structure.smiles  measured.quantity  measured.value
1  O=C1C[C@@H](O)[C@@H](O)[C@@H]2[C@@H]3C(=O)N(c4cccc(Oc5ccccc5)c4)C(=O)[C@@H]3CC[C@H]12            z-score          -0.275
2  CCOC(=O)NN=C1C[C@@H](O)[C@@H](O)[C@@H]2[C@@H]3C(=O)N([C@@H](C)c4ccccc4)C(=O)[C@@H]3CC[C@@H]12            z-score           0.685
3  O=C1[C@H]2[C@H]3[C@H](O)[C@H](O)CC(=NOC[C@@H](O)COCc4ccco4)[C@H]3CC[C@H]2C(=O)N1Cc1ccccc1            z-score           0.737

State recorded z-score for all listed compounds.
1. CC(=O)Nc1ccc([C@@H]2N[C@H](C(=O)O)CC[C@H]2C)cc1
2. C=CC[C@@H]1C=C[C@H](ON=C(C)CCC(=O)OC[C@H]2O[C@H](C#Cc3ccccc3)C=C[C@@H]2Oc2ccc(C)cc2)[C@@H](CO)O1
3. CO[C@@H]1C=CCC(=O)N[C@@H](C)C(=O)OC[C@@H](OC)[C@H](C)CCCC(=O)OC[C@H]1C
4. CC(C)[C@@H](OCc1ccccc1)[C@H](C)C=NOC[C@@H](O)COCc1ccco1

1. -1.38
2. 0.666
3. 1.13
4. 0.331

---

Consider the following compounds; for each one, report its composite z-score.
experimental_system: Dihydroorotate dehydrogenase (quinone), mitochondrial (Plasmodium falciparum (isolate 3D7))
test: PfDHODH enzyme inhibitors, primary screen, biochemical, C-terminal His tag, absorbance 600 nm (AID 1175);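 note: recombinant parasite enzyme with a five histidine tag at its C terminus; test concentration not given here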
condition_summary: DCIP absorbance 600 nm, higher = more signal, called active from +8 up or from −8 down
Numbers only.

# annotated cases, reported composite z-score shown
> print(dat)
                                   compound  measured.value
1  COc1ccc(O[C@H]2C=C[C@@H](c3ccccc3)O[C@@H]2CON=C2[C@H]3CCn4c(=O)n(-c5ccccc5)c(=O)n4[C@H]3[C@H](O)[C@@H]3O[C@H]23)cc1          -0.268
2  COC(=O)CC=C[C@@H](C)[C@@H](C=NOCC[C@@H]1C=C[C@H](OC(C)=O)[C@@H](COC(C)=O)O1)OC           0.558
3  CCOC(=O)[C@H](CC(C)C)NC(=O)CCC1CC(OC(=O)NCCc2ccc(F)cc2)CC2(CCCC(COC(=O)NCCC(C)C)O2)O1 (some centres undefined)           0.322

Please examine the following record next.
Can you share its composite z-score? I mean this compound: Cc1ccc(S(=O)(=O)n2c3ccccc3c3nnc(C(=O)c4ccccc4)nc32)cc1
-1.1

---

Give measured composite z-score for each item. Keep answers brief.
experimental_system: Torsin-1A-interacting protein 2 (Homo sapiens)
test: LULL1 binders on small-molecule microarray, primary screen, cell lysate, human LULL1 lysate, 635/667 nm fluorescence (AID 1092);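 note: probe is lysate of COS7 cells overexpressing human LULL1; score merges per-feature 667 nm fluorescence with signal-to-noise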
condition_summary: hLULL1 lysate binding, 635 nm fluorescence, higher = more signal
One number for each entry.

Provide composite z-score for all items below, preserving their order.
1. CCCNC(=O)OC[C@H]1O[C@H](CCON=Cc2ccc(C(=O)N3[C@H](c4ccc(C)cc4)[C@@H](C)CC[C@H]3C(=O)OC)cc2)C=C[C@@H]1Oc1ccc(OC)cc1
2. CC[C@@H](c1ccccc1)n1c(=O)n2n(c1=O)[C@H]1[C@H](O)[C@@H]3O[C@@H]3C(=NOC[C@@H](O)COCc3ccco3)[C@H]1CC2
3. CO[C@H]1COC(=O)CCC[C@@H](C)[C@H](OC)COC(=O)[C@@H]2CCCN2C(=O)CC=C[C@@H]1C

1. 1.02
2. -1.1
3. -1.77

Quick check: composite z-score of COCCNC(=O)OCC1CCCC2(CC(OC(=O)NCc3ccc4c(c3)OCO4)CC(CCC(=O)N[C@@H](C)C(=O)OC)O2)O1 (some centres undefined) ?
1.55
